Quick reference: EC50 of the listed items.
Target: hGPR120 (Homo sapiens)
Construct: expressed in transfected cells; host or cells: CHO-K1
Sequence (Q5NUL3 1-361): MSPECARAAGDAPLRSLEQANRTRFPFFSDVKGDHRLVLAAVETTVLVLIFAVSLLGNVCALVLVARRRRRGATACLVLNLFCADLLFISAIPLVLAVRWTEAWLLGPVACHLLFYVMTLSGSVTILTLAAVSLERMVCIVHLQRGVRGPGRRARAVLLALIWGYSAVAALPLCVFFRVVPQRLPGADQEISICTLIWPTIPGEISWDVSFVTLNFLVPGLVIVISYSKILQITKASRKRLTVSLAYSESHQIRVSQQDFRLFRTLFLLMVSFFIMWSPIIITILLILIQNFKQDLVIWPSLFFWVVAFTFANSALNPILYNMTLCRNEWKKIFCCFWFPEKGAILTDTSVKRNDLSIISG
Assay: Measurement of activity of GPR120 agonist (cell-based calcium fluorescence assay)
Conditions: CHO-K1 cells expressing Ga16 and hGPR120, Calcium 5 dye fluorescence; activity class; read-out: EC50

| compound | EC50 |
| --- | --- |
| O=C(O)CCCOc1c(F)cc(-c2cccc(CC3CCC3)c2)cc1F [Example 102] | < 200 nM |

Recall and state the measured EC50 for CCCSc1ncccc1-c1ccc(OCCCC(=O)O)cc1 [Example 51] . < 200 nM

Recall and state the measured EC50 for CC(CCOc1c(F)cc(-c2cccnc2SC2CCC2)cc1F)C(=O)O (stereo not drawn) [Example 59] . < 200 nM

Recall and state the measured EC50 for O=C(O)CCCCOc1c(F)cc(-c2cccnc2SC2CCC2)cc1F [Example 233] . < 200 nM

###

Quick reference: pEC50 of the listed items.
Molecular target: hGPR120 (Homo sapiens)
Construct: expressed in transfected cells; host or cells: CHO-K1
Test: Measurement of activity of GPR120 agonist (cell-based calcium fluorescence assay)
Conditions: CHO-K1 cells expressing Ga16 and hGPR120, Calcium 5 dye fluorescence; activity class; read-out: EC50
pEC50: −log10 of the molar value.

Solved cases (5 shown):
| compound | endpoint-label | test-result |
| --- | --- | --- |
| O=C(O)CCCSc1ccc(-c2cccnc2SC2CCCC2)cc1F | pEC50 | > 6.70 |
| O=C(O)CCCOc1ccc(-c2cccc(OC3CCC3)c2)nc1 | pEC50 | 5.70 to 6.70 |
| O=C(O)CCCOc1c(F)cc(-c2cccc(C3CCCC3)n2)cc1F | pEC50 | > 6.70 |
| O=C(O)CCCOc1c(F)cc(-c2cccnc2N2CCOCC2)cc1F | pEC50 | < 4.70 |
| O=C(O)CCCOc1c(F)cc(-c2cccnc2OCc2ccco2)cc1F | pEC50 | 5.70 to 6.70 |

Recall and state the measured pEC50 for `COCCOc1ncccc1-c1cc(F)c(OCCCC(=O)O)c(F)c1` . 4.70 to 5.70

Recall and state the measured pEC50 for `CC(C)COc1ncccc1-c1cc(F)c(OCCCC(=O)O)c(F)c1` . > 6.70

Recall and state the measured pEC50 for `O=C(O)CCCOc1c(F)cc(-c2cccc(NCC3CC3)c2)cc1F` . > 6.70

Recall and state the measured pEC50 for `CC(C)Oc1ncccc1-c1cc(F)c(SCCCC(=O)O)c(F)c1` . > 6.70

Recall and state the measured pEC50 for `O=C(O)CCCSc1ccc(-c2cccc(SC3CCC3)n2)cc1` . > 6.70

Recall and state the measured pEC50 for `O=C(O)CCCOc1c(F)cc(-c2cccnc2C2CCCC2)cc1F` . 5.70 to 6.70

Recall and state the measured pEC50 for `CCCNc1ccccc1-c1cc(F)c(OCCCC(=O)O)c(F)c1` . > 6.70

Recall and state the measured pEC50 for `O=C(O)CCCOc1c(F)cc(-c2cccc(CC3CCCC3)c2)cc1F` . 5.70 to 6.70

Recall and state the measured pEC50 for `Cc1cnc(OC2CCCC2)c(-c2ccc(SCCCC(=O)O)c(F)c2)c1` . > 6.70

Recall and state the measured pEC50 for `COc1cc(-c2cccnc2SC2CCC2)ccc1OCCCC(=O)O` . 4.70 to 5.70

Recall and state the measured pEC50 for `O=C(O)CCCOc1c(F)cc(-c2cccnc2OCC2CC2)cc1F` . 5.70 to 6.70

###

Biological target: hGPR120 (Homo sapiens, UniProt Q5NUL3)
Construct: expressed in transfected cells; host or cells: CHO-K1
Assay: Measurement of activity of GPR120 agonist (cell-based calcium fluorescence assay)
Conditions: CHO-K1 cells expressing Ga16 and hGPR120, Calcium 5 dye fluorescence; activity class; read-out: EC50
pEC50: −log10 of the molar value.
endpoint-label: pEC50

Solved cases (3 shown):
| molecule | pEC50 |
| --- | --- |
| CCCOc1cccc(-c2ccc(SCCCC(=O)O)cc2)n1 | > 6.70 |
| O=C(O)CCCSc1ccc(-c2cccnc2SC2CCC2)cc1 | > 6.70 |
| CN(C)C1CCN(c2cccc(-c3cc(F)c(OCCCC(=O)O)c(F)c3)n2)C1 (stereo not drawn) | < 4.70 |

Recall and state the measured pEC50 for `O=C(O)CCCSc1ccc(-c2cc(F)ccc2NC2CCCC2)cc1` . > 6.70

Recall and state the measured pEC50 for `O=C(O)CCCCCSc1c(F)cc(-c2cccnc2SC2CCC2)cc1F` . 5.70 to 6.70

Recall and state the measured pEC50 for `O=C(O)CCCOc1c(F)cc(-c2ccccc2OC2CCCC2)cc1F` . > 6.70

Recall and state the measured pEC50 for `O=C(O)CCCCSc1ccc(-c2cccnc2SC2CCC2)cc1` . > 6.70

Recall and state the measured pEC50 for `O=C(O)CCCCCOc1c(F)cc(-c2cccnc2OCC2CC2)cc1F` . 5.70 to 6.70

Recall and state the measured pEC50 for `O=C(O)CCCSc1ccc(-c2cccnc2SC2CCC2)cc1F` . > 6.70

###

Molecular target: hGPR120 (Homo sapiens)
Construct: expressed in transfected cells; host or cells: CHO-K1
Sequence (Q5NUL3 1-361): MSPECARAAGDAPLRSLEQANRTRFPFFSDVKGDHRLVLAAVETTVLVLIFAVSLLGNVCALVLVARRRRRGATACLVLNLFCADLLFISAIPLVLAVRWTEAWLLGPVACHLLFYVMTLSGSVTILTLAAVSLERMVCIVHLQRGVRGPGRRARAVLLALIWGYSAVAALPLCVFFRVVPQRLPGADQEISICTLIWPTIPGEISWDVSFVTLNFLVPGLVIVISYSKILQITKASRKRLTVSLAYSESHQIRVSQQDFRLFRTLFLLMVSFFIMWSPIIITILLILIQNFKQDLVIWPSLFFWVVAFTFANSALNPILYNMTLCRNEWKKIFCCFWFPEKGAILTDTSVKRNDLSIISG
Experiment: Measurement of activity of GPR120 agonist (cell-based calcium fluorescence assay)
Conditions: CHO-K1 cells expressing Ga16 and hGPR120, Calcium 5 dye fluorescence; activity class; read-out: EC50
endpoint-label: EC50

Solved cases (3 shown):
| chemical-string | tgt | EC50 |
| --- | --- | --- |
| Cc1ccc(-c2ccc(SCCCC(=O)O)c(F)c2)c(OC2CCCC2)n1 | hGPR120 (Homo sapiens) | 200 to 2000 nM |
| CC(C)Nc1cccc(-c2cc(F)c(OCCCC(=O)O)c(F)c2)c1 | hGPR120 (Homo sapiens) | < 200 nM |
| O=C(O)CCCOc1c(F)cc(-c2cccnc2N2CCCC2)cc1F | hGPR120 (Homo sapiens) | 200 to 2000 nM |

// switching to the query compound
Recall and state the measured EC50 for `CCCNc1ccccc1-c1cc(F)c(SCCCC(=O)O)c(F)c1` . < 200 nM

###

Target: hGPR120 (Homo sapiens, UniProt Q5NUL3)
Construct: expressed in transfected cells; host or cells: CHO-K1
Assay: Measurement of activity of GPR120 agonist (cell-based calcium fluorescence assay)
Conditions: CHO-K1 cells expressing Ga16 and hGPR120, Calcium 5 dye fluorescence; activity class; read-out: EC50
Quick reference: EC50 of the listed items.

Recall and state the measured EC50 for `O=C(O)CCCOc1c(F)cc(-c2cccnc2SC2CC2)cc1F` . 200 to 2000 nM

Recall and state the measured EC50 for `CCCSc1ncccc1-c1cc(F)c(OCCCCC(=O)O)c(F)c1` . < 200 nM

Recall and state the measured EC50 for `CC(C)Oc1ncccc1-c1cc(F)c(OCCCC(=O)O)c(F)c1` . 200 to 2000 nM

Recall and state the measured EC50 for `O=C(O)CCCSc1c(F)cc(-c2cccnc2OC2CCCC2)cc1F` . < 200 nM

Recall and state the measured EC50 for `O=C(O)CCCOc1c(F)cc(-c2ccccc2CC2CCCC2)cc1F` . < 200 nM

Recall and state the measured EC50 for `C=CCOc1ncccc1-c1cc(F)c(OCCCC(=O)O)c(F)c1` . 200 to 2000 nM

Recall and state the measured EC50 for `O=C(O)CCCOc1c(F)cc(-c2cccc(Nc3ccccc3)n2)cc1F` . 200 to 2000 nM

Recall and state the measured EC50 for `O=C(O)CCCSc1ccc(-c2cc(F)ccc2NC2CCCC2)cc1F` . < 200 nM

Recall and state the measured EC50 for `CC(C)Sc1ncccc1-c1ccc(SCCCC(=O)O)cc1` . < 200 nM
